- Test system: Candida albicans
- particulars: 20 µM
- Description: Antifungal activity against Candida albicans ATCC 90028 (CO-ADD:FG_001); MIC in YNB media using NBS plates, by OD630
Results with a measured potency or affinity are listed apart.
result type: Inhibition (%)

>>> recorded_number("CN1CCc2cc3c(cc2[C@H]1[C@@H]1OC(=O)c2c1ccc1c2OCO1)OCO3 [BICUCULLINE]")
-1.4
>>> recorded_number("COc1ccc2c(c1OC)CN1CCc3cc4c(cc3C1C2)OCO4 (stereo not drawn) [TETRAHYDROBERBERINE]")
-1.05
>>> recorded_number("COc1ccc2c(c1O)-c1c(OC)c(OC)cc3c1C(C2)N(C)CC3 (stereo not drawn)")
-0.15
>>> recorded_number("CC(C)(O)C1C2OC(=O)C1C1(O)CC3OC34C(=O)OC2C14C (stereo not drawn)")
3.44
>>> recorded_number("CC1OC(=O)C2CC3CCCCC3C(/C=C/C3CCCC(C)N3C)C12 (stereo not drawn)")
0.31
>>> recorded_number("C=C1C(=O)O[C@@H]2C[C@@H](C)[C@@H]3C=CC(=O)[C@@]3(C)[C@@H](O)[C@H]12 [HELENALIN]")
2.42
>>> recorded_number("CC[C@@]1(O)C(=O)OCc2c1cc1n(c2=O)Cc2cc3ccccc3nc2-1 [CAMPTOTHECIN]")
4.14
>>> recorded_number("CC[C@](C)(O)C(=O)O[C@H]1C(=O)O[C@@H]2C[C@H]3C(C)=C[C@H](O)[C@@H](O)[C@]3(C)[C@H]3[C@@]4(O)OC[C@]32[C@@H]1[C@@H](C)[C@H]4O")
4.77

---

// values below are reported Inhibition
- System: Escherichia coli
- protocol details: Antibacterial activity against Escherichia coli ATCC 25922 (CO-ADD:GN_001); MIC in CAMBH media using NBS plates, by Resazurin F(560/590)
- Format: functional
- particulars: Concentration 20 uM, ASSAY_TEST Inhibition of Bacterial Growth, detection method Resazurin, Fluorescence (ex560/em590), MEDIA CAMHB, plate type 384well, CORNING #3640, time 18 hr
result type: Inhibition (%)

>>> recorded_number("COC1C(O)C(C)OC(OC2C(Oc3cccc4c(O)c5c(=O)oc6ccc(C)c7c(=O)oc(c34)c5c67)OC(C)C(O)C2O)C1O (configuration not stated)")
-0.53
>>> recorded_number("C=C1C(C)C2C(Cc3ccccc3)NC(=O)C23C(OC(C)=O)/C=C/C(C)(O)CC(C)C/C=C/C3C1O (configuration not stated)")
-0.68
>>> recorded_number("C=C1C(=O)OC2C1CCC(C)C1(O)C=CC(=O)C21C (configuration not stated)")
2.36
>>> recorded_number("C[C@H]1CCC/C=C/[C@@H]2C[C@H](O)C[C@H]2[C@H](O)/C=C/C(=O)O1")
11.85
>>> recorded_number("CC1CCC2C(C)C(=O)OC3OC4(C)CCC1C32OO4 (configuration not stated)")
7.05
>>> recorded_number("CO[C@@H]1[C@H](O)CC[C@]2(CO2)[C@H]1[C@@]1(C)O[C@@H]1CC=C(C)C")
4.31
>>> recorded_number("CCN1C[C@]2(COC)[C@H](O)C[C@H](OC)[C@]34C1[C@H]([C@H](OC)[C@H]23)[C@]1(OC(C)=O)[C@H]2[C@@H](OC(=O)c3ccccc3)[C@](O)(C[C@H]24)[C@@H](OC)[C@@H]1O")
7.77

---

# key: entry, value: Inhibition
- Tested on: Klebsiella pneumoniae
- particulars: Concentration 20 uM; ASSAY_TEST Inhibition of Bacterial Growth; detection method Absorption (OD600); MEDIA CAMHB; plate type 384well; NBS; CORNING #3640; time 18 hr
- Description: Antibacterial activity against Klebsiella pneumoniae MDR ATCC 70063 (CO-ADD:GN_003); MIC in CAMBH media using NBS plates, by OD(600)
Entries with a potency or affinity are not part of this list.
result type: Inhibition (%)

>>> recorded_number("CC1CCC2C(C)C3C(CC4C5CC=C6CC(OC7OC(CO)C(O)C(OC8OC(CO)C(O)C(O)C8O)C7OC7OC(C)C(O)C(O)C7O)CCC6(C)C5CCC43C)N2C1.Cl (stereo unspecified)")
4.14
>>> recorded_number("CC[C@H]1CN2CCc3cc(OC)c(OC)cc3[C@@H]2C[C@@H]1C[C@H]1NCCc2c1[nH]c1ccc(O)cc21 [TUBULOSINE]")
-0.53
>>> recorded_number("CC(=O)O[C@@H]1[C@@H](O)C2=C3[C@]4(C)[C@@H]1C(C)(C)C(=O)C[C@@H]4[C@]3(O)[C@H](OC(C)=O)[C@@]1(C[C@@H]1C)C2=O")
10.98
>>> recorded_number("COC1C(O)C(C)OC(OC2C(Oc3cccc4c(O)c5c(=O)oc6ccc(C)c7c(=O)oc(c34)c5c67)OC(C)C(O)C2O)C1O (stereo unspecified)")
2.04
>>> recorded_number("CC12C(=O)C=CCC1=CCC1C2CCC2(O)C(=O)OC3(C)C4CC5(C)C(COC16OC23C5C6=O)C(=O)O4 (stereo unspecified)")
-1.2
>>> recorded_number("C=C1C(=O)O[C@@H]2C[C@@H](C)[C@@H]3C=CC(=O)[C@@]3(C)[C@@H](O)[C@H]12 [HELENALIN]")
9.92

---

- Tested on: Acinetobacter baumannii
- protocol details: Antibacterial activity against Acinetobacter baumannii ATCC 19606 (CO-ADD:GN_034); MIC in CAMBH media using NBS plates, by Resazurin F(560/590)
- Format: functional
- particulars: Concentration 20 uM, ASSAY_TEST Inhibition of Bacterial Growth, detection method Resazurin, Fluorescence (ex560/em590), MEDIA CAMHB, plate type 384well, CORNING #3640, time 18 hr
result type: Inhibition (%)

>>> recorded_number("CO[C@@H]1[C@H](O)CC[C@]2(CO2)[C@H]1[C@@]1(C)O[C@@H]1CC=C(C)C")
1.38
>>> recorded_number("COc1cccc2c1cc([N+](=O)[O-])c1c(C(=O)O)cc3c(c12)OCO3")
-2.12
>>> recorded_number("COc1ccc2c(c1O)-c1c(OC)c(OC)cc3c1C(C2)N(C)CC3 (centres undefined)")
2.34
>>> recorded_number("CC(=O)OC(C)(C)/C=C/C(=O)[C@](C)(O)[C@H]1[C@H](O)C[C@@]2(C)[C@@H]3CC=C4[C@@H](C=C(O)C(=O)C4(C)C)[C@]3(C)C(=O)C[C@]12C")
-9.18
>>> recorded_number("CC(=O)O[C@@H]1[C@@H](O)C2=C3[C@]4(C)[C@@H]1C(C)(C)C(=O)C[C@@H]4[C@]3(O)[C@H](OC(C)=O)[C@@]1(C[C@@H]1C)C2=O")
-6.85
>>> recorded_number("CN1CCc2cc3c(cc2[C@H]1[C@@H]1OC(=O)c2c1ccc1c2OCO1)OCO3")
-4.97
>>> recorded_number("C=C1C(=O)OC2C1CCC(C)C1(O)C=CC(=O)C21C (centres undefined)")
-10.47
>>> recorded_number("CC(C)(O)C1C2OC(=O)C1C1(O)CC3OC34C(=O)OC2C14C (centres undefined)")
-3.06
>>> recorded_number("CC1CCC2C(C)C3C(CC4C5CC=C6CC(OC7OC(CO)C(O)C(OC8OC(CO)C(O)C(O)C8O)C7OC7OC(C)C(O)C(O)C7O)CCC6(C)C5CCC43C)N2C1.Cl (centres undefined)")
-5.32
>>> recorded_number("CC12C(=O)C=CCC1=CCC1C2CCC2(O)C(=O)OC3(C)C4CC5(C)C(COC16OC23C5C6=O)C(=O)O4 (centres undefined)")
-16.5
>>> recorded_number("OC1CN2CC[C@H](O)[C@@H]2C(O)[C@@H]1O (some centres undefined)")
-6.5
>>> recorded_number("CCN1C[C@]2(COC)[C@H](O)C[C@H](OC)[C@]34C1[C@H]([C@H](OC)[C@H]23)[C@]1(OC(C)=O)[C@H]2[C@@H](OC(=O)c3ccccc3)[C@](O)(C[C@H]24)[C@@H](OC)[C@@H]1O")
-8.01
>>> recorded_number("C=C1C(=O)O[C@@H]2C[C@@H](C)[C@@H]3C=CC(=O)[C@@]3(C)[C@@H](O)[C@H]12")
-4.22
>>> recorded_number("CC1OC(=O)C2CC3CCCCC3C(/C=C/C3CCCC(C)N3C)C12 (centres undefined)")
-6.83
